Experimental Details: Solubility in water, DMSO and cell culture medium
Assay type: physicochemical
Measurement Context: DMSO, organic solvent or mixture; read-out: soluble in DMSO
Result Type: solubility

stdin: // lookup solubility for Cc1nn(-c2ccccc2)c2sc(C(=O)Nc3c(C)n(C)n(-c4ccccc4)c3=O)cc12 [MYLS22]
stdout: ≤ 1000 µM
